- Protocol: small-molecule binders of probe aNOTCH2, primary screen, biochemical, small-molecule microarray, 635/667 nm fluorescence (AID 1121);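 also: score merges feature fluorescence read at 667 nm with its signal to noise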
- Condition Parameters: higher = more signal
Readout Type: composite z-score
Just the number, please.

C=CC[C@]1(C(N)=O)N=C(c2ccc(OCCCO)cc2)O[C@H]1c1ccccc1CN=[N+]=[N-] : -0.0785
CCC(=O)[C@]12O[C@@]3([C@@H]4C(=O)OCC[C@@H]41)N(Cc1ccccc1)C(C)=C(C(=O)OC)[C@@H](c1ccccc1)N3C2=O : -0.164
Cc1ccc(S[C@]2(C(=O)O)CC(=O)N(Cc3cc(C(F)(F)F)cc(C(F)(F)F)c3)[C@@H]2c2ccc(CO)cc2I)cc1 : -0.154

-- ask Form field: reported composite z-score of CC(=O)Nc1ccc([C@H]2[C@H](C)CC[C@H]3C(=O)N4[C@@H](CC[C@@H](C)[C@@H]4c4ccc(NC(C)=O)cc4)C(=O)N32)cc1
-- reply -0.195

-- ask Entry C[C@@H]1CC[C@H]2C(=O)N3[C@@H](CC[C@@H](C)[C@@H]3c3cccc(N4CCOCC4)c3)C(=O)N2[C@H]1c1cccc(Br)c1 : reported composite z-score = ?
-- reply -0.0956

-- ask What does the record list as composite z-score for COCCOC(=O)N1C(=O)[C@@]2(c3cc(C#CCNC(N)=O)ccc31)[C@H](c1ccccc1OCCO)N1[C@H](c3ccccc3)[C@H](c3ccccc3)OC(=O)[C@H]1[C@@H]2C(=O)NC[C@H](O)c1ccccc1 ?
-- reply -0.113

-- ask GET /values?readout=composite z-score&item= C=CC[C@]1(C(=O)NCC(O)CO)N=C(c2ccc(OCCCO)cc2)O[C@H]1c1ccccc1 (some centres undefined)
-- reply -0.0877

-- ask # lookup: composite z-score of COC(=O)C1=CC(c2ccc(CO)cc2)=CC(C2CC2)N(Cc2sc3ccccc3c2Cl)C=C1C(=O)OC (centres undefined)
-- reply 0.101

-- ask Using the record for C=CCNC(=O)[C@H]1[C@@H]2C(=O)O[C@@H](c3ccccc3)[C@@H](c3ccccc3)N2[C@@H](c2ccc(O)cc2)[C@]12C(=O)Nc1ccc(C#CCNC(N)=O)cc12 , report its composite z-score.
-- reply 0.12

###

- Experimental Target: Dihydroorotate dehydrogenase (quinone), mitochondrial (Plasmodium falciparum (isolate 3D7)) (UniProt Q08210)
- Sequence (Q08210 whole entry, looked up): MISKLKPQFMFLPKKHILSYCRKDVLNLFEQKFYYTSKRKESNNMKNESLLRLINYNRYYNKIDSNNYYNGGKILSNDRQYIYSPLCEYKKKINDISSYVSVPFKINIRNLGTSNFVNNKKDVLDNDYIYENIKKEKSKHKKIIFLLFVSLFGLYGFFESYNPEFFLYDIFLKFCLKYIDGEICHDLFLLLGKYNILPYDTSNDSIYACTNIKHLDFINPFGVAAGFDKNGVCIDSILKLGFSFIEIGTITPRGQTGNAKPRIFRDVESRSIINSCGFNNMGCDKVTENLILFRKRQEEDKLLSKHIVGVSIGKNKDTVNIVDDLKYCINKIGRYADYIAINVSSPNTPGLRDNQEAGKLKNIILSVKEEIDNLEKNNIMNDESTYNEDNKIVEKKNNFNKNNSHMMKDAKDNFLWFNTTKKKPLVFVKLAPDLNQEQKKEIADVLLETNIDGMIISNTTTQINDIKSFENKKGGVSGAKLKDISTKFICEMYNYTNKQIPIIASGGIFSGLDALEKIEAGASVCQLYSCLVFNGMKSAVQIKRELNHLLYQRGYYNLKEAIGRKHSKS
- Protocol: PfDHODH enzyme inhibitors, primary screen, biochemical, C-terminal His tag, absorbance 600 nm (AID 1175);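 also: recombinant parasite enzyme with a five histidine tag at its C terminus; test concentration not given here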
- Condition Parameters: DCIP absorbance 600 nm, higher = more signal, called active from +8 up or from −8 down
label 1 means recorded composite z-score is -0.4 or above; label 0 means it is below -0.4.

O=C1O[C@@H](c2ccccc2)[C@@H](c2ccccc2)N2[C@@H](c3ccccc3OCCO)[C@]3(C(=O)Nc4ccc(C#CC5=CCCCC5)cc43)[C@@H](C(=O)O)[C@H]12 : label 0
C#C[C@H](O[Si](C#Cc1ccccc1)(C(C)C)C(C)C)c1ccccc1 : label 1
CC1=C([C@H](O)CCc2ccccc2)[C@H](CO)[C@@H]2C(=O)N(Cc3ccccc3)C(=O)[C@@H]2C1 : label 0
CO[C@@H]1COC(=O)[C@H](COCc2ccccc2)NC(=O)CC=C[C@@H](C)[C@H](OC)COC(=O)[C@H](COCc2ccccc2)NC(=O)CC=C[C@H]1C : label 1
C=CCNC(=O)[C@H]1[C@@H]2C(=O)O[C@@H](c3ccccc3)[C@@H](c3ccccc3)N2[C@@H](c2ccc(O)cc2)[C@]12C(=O)Nc1ccc(C#CCNC(N)=O)cc12 : label 0

-- ask Answer whether composite z-score of CC(C)=C1C(=O)C(c2ccccc2)=C2CN3C(=O)N(CCc4ccccc4)C(=O)[C@]3(Cc3ccccc3)[C@H]21 is greater than or equal to -0.4.
-- reply label 1

-- ask In plain terms: is recorded composite z-score at least -0.4 for CC(=O)NCCCC[C@@H]1NC(=O)[C@@H]2C[C@H](C(=O)NCCCCCCN(C)C)[C@H](c3ccc(O)cc3)N2C1=O ?
-- reply label 1

###

# composite z-score values compiled below
- Experimental Target: Torsin-1A (Homo sapiens) (UniProt O14656)
- Sequence (O14656 whole entry, looked up): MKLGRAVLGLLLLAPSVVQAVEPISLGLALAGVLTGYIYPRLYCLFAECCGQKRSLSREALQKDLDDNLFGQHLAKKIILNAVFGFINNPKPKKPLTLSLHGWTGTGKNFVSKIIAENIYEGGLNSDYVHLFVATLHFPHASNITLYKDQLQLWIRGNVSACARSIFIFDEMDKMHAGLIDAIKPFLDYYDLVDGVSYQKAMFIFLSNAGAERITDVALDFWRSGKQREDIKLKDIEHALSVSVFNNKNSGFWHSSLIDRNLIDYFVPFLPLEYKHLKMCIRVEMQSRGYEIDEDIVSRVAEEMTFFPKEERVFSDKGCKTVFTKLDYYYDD
- Protocol: small-molecule binders of mutant TOR1A in lysate, primary screen, cell lysate, small-molecule microarray, COS7 lysate, 635/667 nm fluorescence (AID 1150);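 also: score pools 667 nm emission and signal to noise measuring lysate protein binding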
- Condition Parameters: COS7 hTOR1A mutant lysate, 635 nm fluorescence, higher = more signal
// print number alone

NC(=O)[C@H]1[C@@H]2C(=O)O[C@@H](c3ccccc3)[C@@H](c3ccccc3)N2[C@@H](c2ccc(O)cc2)[C@]12C(=O)Nc1ccc(C#CCCO)cc12 : 0.806
COCCOC(=O)N1C(=O)[C@@]2(c3cc(C#CCC(C(=O)OC)C(=O)OC)ccc31)[C@H](C(=O)N1CCN(c3ncccn3)CC1)[C@H]1C(=O)O[C@H](c3ccccc3)[C@H](c3ccccc3)N1[C@@H]2c1ccc(O)cc1 : 0.731
CN(C)CCCC[C@@H]1NC(=O)[C@@H]2C[C@H](C(=O)NCCCCCNC(=O)CS)[C@H](c3ccc(O)cc3)N2C1=O : 0.847

Okay, next one:
-- ask Which composite z-score reading was recorded for the compound N#Cc1ccc(NN2C(C(O)c3ccc(I)cc3)C=CC3C(=O)N(c4ccccc4)C(=O)C32)cc1 (centres undefined) ?
-- reply 0.629

###

- System: Sam68 (KHDRBS1)
- Protocol: Sam68 small-molecule binders, primary screen, biochemical, small-molecule microarray, 635 nm fluorescence (AID 1125);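 also: score merges 667 nm channel intensity with signal to noise over triplicate slides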
- Condition Parameters: small-molecule microarray binding, higher = more signal
Label t when composite z-score is at or above 0.5; anything below gets f.

Answered examples (5):
CCN1C(C)=C(C(=O)OC)[C@@H](c2ccccc2)N2C(=O)[C@@]3(C(=O)OC)O[C@@]12[C@@H]1C(=O)CCC[C@@H]13 : f
NC(=O)NCC#Cc1ccc2c(c1)[C@]1(C(=O)N2)[C@H](c2ccccc2OCCO)N2[C@H](c3ccccc3)[C@H](c3ccccc3)OC(=O)[C@H]2[C@@H]1C(=O)N1CCN(c2ncccn2)CC1 : t
C=CC[C@@]12N=C(c3ccc(OCCCO)cc3)O[C@@H]1c1ccccc1CN(Cc1ccccc1)C2=O : t
Cc1ccc(S[C@]2(C(=O)NC3CC3)CC(=O)N(Cc3cc(C(F)(F)F)cc(C(F)(F)F)c3)[C@@H]2c2ccc(CO)cc2)cc1 : t
CC(C)[C@H]1NC(=O)[C@@]23C(=O)N[C@@H](Cc4ccccc4)C2[C@H](C)[C@@]2(C)O[C@H]2C3/C=C/C/C=C\CNC(=O)[C@H](C)NC1=O (stereo partly specified) : f

Now look at this one.
-- ask Evaluate CCOC(=O)C[C@H]1[C@H](OC(=O)Cc2ccc3c(c2)OCO3)[C@@H](NC(=O)CC(C)C)c2cc(OCCCO)ccc2N1C(=O)c1ccccc1 : composite z-score at minimum 0.5?
-- reply t

###

- Protocol: small-molecule microarray binders of probe aXIP, primary screen, biochemical, NeuroSMM set, 635/667 nm fluorescence (AID 1119);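 also: probe is the protein aXip251-270 applied at 1 µg/mL to compound-printed slides; binding of probe to printed compounds measured as 667 nm fluorescence plus signal to noise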
- Condition Parameters: higher = more signal, called active from +8 up or from −8 down
Entries and their composite Z-score values follow.
Enter a number only.

Use these answered entries as a reference point.
COCCOC(=O)N1C(=O)[C@@]2(c3cc(C#CCNC(N)=O)ccc31)[C@H](C(=O)N1CCCCCCC1)[C@H]1C(=O)O[C@H](c3ccccc3)[C@H](c3ccccc3)N1[C@@H]2c1ccccc1OCCO : 1.01
CO[C@H]1COC(=O)[C@@H](Cc2ccccc2)NC(=O)[C@@H](C)COC(=O)CC=C[C@@H]1C : -0.179
C[C@H]1COC(=O)[C@@H]2CCCN2C(=O)[C@@H](C)COC(=O)[C@@H]2CCCN2C1=O : -0.221
COCCOC(=O)N1C(=O)[C@@]2(c3ccccc31)[C@H](C(=O)N1CCc3cc(OC)c(OC)cc3C1)[C@H]1C(=O)O[C@H](c3ccccc3)[C@H](c3ccccc3)N1[C@@H]2c1ccccc1OCCO : 0.497
CO[C@H]1COC(=O)CC=C[C@H](C)[C@@H](OC)COC(=O)CC=C[C@@H]1C : 0.142

-- ask Any idea what its composite Z-score is? The compound is CO[C@H]1O[C@H](CO)[C@@H](OC(=O)Nc2ccc3c(c2)OCO3)[C@H](OC(=O)Nc2ccccc2)[C@@H]1OC(=O)Nc1ccccc1
-- reply 0.0474

-- ask Record request: composite Z-score value, item CO[C@H]1COC(=O)[C@@H](OCc2ccccc2)C=C[C@H](C)[C@@H](OC)COC(=O)[C@H](OCc2ccccc2)C=C[C@@H]1C
-- reply -0.738

-- ask Sample CCN1C(C)=C(C(=O)OC)[C@@H](c2ccccc2)N2C(=O)[C@@]3(C(=O)OC)O[C@@]12[C@@H]1C(=O)CCC[C@@H]13 — what was its composite Z-score?
-- reply -0.166

-- ask Which composite Z-score is reported for this compound? CCCNC(=O)[C@@]1(Sc2ccc(C)cc2)CC(=O)N(Cc2ccccc2Cl)[C@@H]1c1ccc(CO)cc1
-- reply 0.165

-- ask Entry C=CCNC(=O)[C@H]1[C@@H]2C(=O)O[C@@H](c3ccccc3)[C@@H](c3ccccc3)N2[C@@H](c2ccccc2OCCO)[C@]12C(=O)N(C(=O)OCCOC)c1ccc(C#CCC(C(=O)OC)C(=O)OC)cc12 has what composite Z-score?
-- reply 1.06

-- ask Give the measured composite Z-score of C[N+](C)(C)CCCCNC(=O)[C@H]1C[C@H]2C(=O)NCC(=O)N2[C@H]1c1cccc(OCCO)c1 .
-- reply 1.49

-- ask Fill blank: measured composite Z-score of the compound CCCCCCc1nc(C2CC2)c(C)c2c1[Si](C(C)C)(C(C)C)OC2 is ____.
-- reply 0.485

-- ask Field request: composite Z-score | item: COCCOC(=O)N1C(=O)[C@@]2(c3cc(C#CCCO)ccc31)[C@H](c1ccc(OCCO)cc1)N1[C@H](c3ccccc3)[C@H](c3ccccc3)OC(=O)[C@H]1[C@@H]2C(=O)NC[C@H](O)c1ccccc1
-- reply 0.463

-- ask Look at this compound and give its reported composite Z-score. O=C1O[C@@H](c2ccccc2)[C@@H](c2ccccc2)N2[C@@H](c3ccc(OCCO)cc3)[C@]3(C(=O)Nc4ccc(C#CCCO)cc43)[C@@H](C(=O)N3CCN(c4ncccn4)CC3)[C@H]12
-- reply 0.337
